Tested on: Septoria nodorum
Assay: Fungicidal test, Septoria nodorum (LEPTNO) on wheat, PRCO; further: test concentration or dose not given here
Format: in vivo
Conditions: METHOD 2 (unbanded)
Measured LEPTNO 1 d Prot/Foir PRCO determines class: L (below 10), M (10 to below 20), H (20 or more)

COMPOUND	STUDY TARGET	CATEGORY
CCOCN(C(=O)Cc1ccc2oc(CC(C)(C)C)nc2c1)c1snc(C)c1Cl	Septoria nodorum	H
Cc1nsc(NC(=O)Cc2ccc3oc(SC(C)C)nc3c2)c1Cl	Septoria nodorum	M
Cc1nsc(NC(=O)Cc2ccc3oc(C(C)Cl)nc3c2)c1Cl (racemic)	Septoria nodorum	H
CSc1nc2cc(CC(=O)Nc3snc(C)c3Cl)ccc2o1	Septoria nodorum	M
Cc1nsc(NC(=O)Cc2ccc3oc(C(F)(F)C(F)F)nc3c2)c1Cl	Septoria nodorum	M
Cc1nsc(NC(=O)Cc2ccc3oc(SC(C)(C)C)nc3c2)c1Cl	Septoria nodorum	M
Cc1nsc(NC(=O)Cc2ccc3oc(C(C)C)nc3c2)c1Cl	Septoria nodorum	L
Cc1nsc(NC(=O)Cc2ccc3oc(CC(C)(C)C)nc3c2)c1Br	Septoria nodorum	M
Cc1nsc(NC(=O)Cc2ccc3oc(C4(C)CCCCC4)nc3c2)c1Cl	Septoria nodorum	L
Cc1nc2ccc(CC(=O)Nc3snc(C)c3Cl)cc2[nH]1	Septoria nodorum	L

---

Tested on: Pyricularia oryzae; further: test concentration or dose not given here
Type: in vivo
Details: METHOD 2 (unbanded)
Is PYRIOR 1 d Prot/Foir PRCO at least 90? Then t. If not, f.

COMPOUND	CATEGORY
Cc1nsc(NC(=O)Cc2ccc3oc(NC(C)(C)C)nc3c2)c1Cl	t
COC(=O)CSc1nc2cc(CC(=O)Nc3snc(C)c3Cl)ccc2o1	f
Cc1nsc(NC(=O)Cc2ccc3oc(-c4sccc4Cl)nc3c2)c1Cl	f
Cc1nsc(NC(=O)Cc2ccc3oc(C(F)(F)F)nc3c2)c1Cl	f
Cc1nsc(NC(=O)Cc2ccc3oc(CC4CC4)nc3c2)c1Cl	f
Cc1nsc(NC(=O)Cc2ccc3oc(C4CCCCC4)nc3c2)c1Cl	t
Cc1nsc(NC(=O)Cc2ccc3oc(-c4c(F)c(F)c(F)c(F)c4F)nc3c2)c1Cl	f
Cc1nsc(NC(=O)Cc2ccc3nc(CC(C)(C)C)[nH]c3c2)c1Cl	f
Cc1nsc(N(C(=O)Cc2ccc3oc(CC(C)(C)C)nc3c2)C(C)C)c1Cl	f
Cc1nsc(NC(=S)Cc2ccc3oc(CC(C)(C)C)nc3c2)c1Cl	t
Cc1nsc(NC(=O)Cc2ccc3oc(C4CCCC4)nc3c2)c1Cl	f
CCOCN(C(=O)Cc1ccc2oc(CC(C)(C)C)nc2c1)c1snc(C)c1Cl	f
Cc1nsc(NC(=O)Cc2ccc3oc(Cc4c(F)c(F)c(F)c(F)c4F)nc3c2)c1Cl	f
Cc1nsc(NC(=O)Cc2ccc3oc(-c4cc(Cl)cc(Cl)c4)nc3c2)c1Cl	f
CCCN(C(=O)Cc1ccc2oc(CC(C)(C)C)nc2c1)c1snc(C)c1Cl	f
Cc1nsc(NC(=O)Cc2ccc3oc(C(C)C#N)nc3c2)c1Cl (racemic)	f
CCN(C(=O)Cc1ccc2oc(CC(C)(C)C)nc2c1)c1snc(C)c1Cl	f
Cc1nsc(NC(=O)Cc2ccc3nc(CC(C)(C)C)oc3c2)c1Cl	f
Cc1nsc(NC(=O)Cc2ccc3oc(CC(C)(C)C)nc3c2)c1C#N	f
Cc1nsc(NC(=O)Cc2ccc3oc(SC(C)C)nc3c2)c1Cl	f
Cc1nsc(NC(=O)Cc2ccc3oc(CCc4ccccc4)nc3c2)c1Cl	f
CCN(C)c1nc2cc(CC(=O)Nc3snc(C)c3Cl)ccc2o1	f
CCc1nsc(NC(=O)Cc2ccc3oc(CC(C)(C)C)nc3c2)c1Cl	f
CCCc1nc2cc(CC(=O)Nc3snc(C)c3Cl)ccc2s1	t
Cc1nsc(NC(=O)Cc2ccc3oc(CC(C)(C)C)nc3c2)c1Br	t
Cc1nsc(NC(=O)Cc2ccc3oc(C(C)(C)CCl)nc3c2)c1Cl	f
Cc1nsc(NC(=O)Cc2ccc3oc(C(C)(C)C)nc3c2)c1Cl	t
Cc1nsc(NC(=O)Cc2ccc3oc(-c4c(Cl)cc(C(F)(F)F)cc4Cl)nc3c2)c1Cl	f
COc1nc2cc(CC(=O)Nc3snc(C)c3Cl)ccc2o1	t
Cc1nsc(NC(=O)Cc2ccc3nc(C(C)(C)C)[nH]c3c2)c1Cl	f
Cc1nsc(NC(=O)Cc2ccc3oc(CC(C)(C)C)nc3c2)c1Cl	t
